assay: soluble on expression in E. coli; label from the status in PepcDB or PDB records

{"sequence_chain": "MAHHHHHHMNCKNMDTSYEIINYLTKDELDIDLSCMDKKERYKIWKRLPKCELHCHLDVCFSVDFFLNVIRKYNIQPNMSDEEIIDYYLFSKPGKSLDEFVEKALRLTDIYIDYTVVEDLAKHAVFNKYKEGVVLMEFRYSPSFMSFKHNLDKDLIHEAIVKGLNEAVALLEYKIQVGLLCTGDGGLSHERMKEAAEFCIKHKKDFVGYDHAGHEVDLKPFKDIFDNIREEGISLSVHAGEDVSIPNLNSLYTAINLLHVKRIGHGIRVSESQELIDLVKEKDILLEVCPISNVLLNNVKSMDTHPIRMLYDAGVKVSVNSDDPGMFLTNITDNYEELYTHLNFTLADFMKMNLWAVQKSFVDPDIKNKIISKYF", "soluble on expression in E. coli": "soluble"}
{"sequence_chain": "SGIGTGHTSMNKGGKDVTLLELSVEKRRWRINMETSKIILEKMQSDDVLDGNRERSNEREGRDSLSEKLKSKQNLKDEEKLRYIKTGKSIQVEGTVRAKALRWVQ", "soluble on expression in E. coli": "soluble"}
